Each item that follows carries a reported CC50.
- Tested on: OVCAR-3
- Assay summary: NCI DTP 60 cell line screen, SRB
- Protocol conditions: Homo sapiens, OVCAR-3, 48 h, read-out: LC50

{"Molecule": "O=C1/C(=C/C(Cl)=C/c2ccc([N+](=O)[O-])cc2)SC(=S)N1c1ccc(O)cc1", "Experimental system": "OVCAR-3", "Output unit": "µM", "Bound operator": ">", "CC50": 100}
{"Molecule": "O=C1NC(=S)S/C1=C\\C(Cl)=C\\c1ccc([N+](=O)[O-])cc1", "Experimental system": "OVCAR-3", "Output unit": "µM", "Bound operator": "=", "CC50": 26.6}
{"Molecule": "O=C(O)CCN1C(=O)/C(=C/C(Cl)=C/c2ccc([N+](=O)[O-])cc2)SC1=S", "Experimental system": "OVCAR-3", "Output unit": "µM", "Bound operator": "=", "CC50": 66.6}
{"Molecule": "O=C1/C(=C/C(Cl)=C/c2ccc([N+](=O)[O-])cc2)SC(=S)N1/N=C\\C(Cl)=C\\c1ccc([N+](=O)[O-])cc1", "Experimental system": "OVCAR-3", "Output unit": "µM", "Bound operator": "=", "CC50": 41.1}
{"Molecule": "O=C(O)C(Cc1ccccc1)N1C(=O)/C(=C/C(Cl)=C/c2ccc([N+](=O)[O-])cc2)SC1=S (centres unmarked)", "Experimental system": "OVCAR-3", "Output unit": "µM", "Bound operator": "=", "CC50": 6.98}
